Target: T1, rhesus monkey PD-L1 (full-length, on CHO-s cells) (rhesus monkey, UniProt F6VEW6 19-290)
T1 construct: whole, on cells; also called monkey PD-L1-CHO
Experiment: FACS, monkey PD-L1-CHO cells
Value type: EC50 (µg/mL)
Answers are plain numbers, in µg/mL.

NB22D-21-17 VHH-Fc chimeric antibody protein (Fc fusion, not shown: human IgG1 Fc fragment, its N-terminus linked to the C-terminus of the VHH) EVQLVESGGGLVQPGGSLRLSCAASRTGSNIYGMHWYRQAPGKGREWVGTIFIDWNTIVTDSVKGRFTISRDNAKNTLYLQMNTLRAEDTAVYYCAADVSGYGRAWGQGTTVTVSS :: 3.25
NB22D-21-huVH2 (Fc fusion, not shown: a dimerising Fc or GST, Humanized form of NB22D-21; also called humanized antibody NB22D-21-huVH2; D21-Vh2) EVQLVESGGGLVQPGGSLRLSCAASRTDSNINGMHWYRQAPGKGREWVGTIFIDGNTIVTDSVKGRFTISRDNAKNTLYLQMNTLRAEDTAVYYCAADVSGYGRAWGQGTTVTVSS :: 1.82
NB22D-21-8 VHH-Fc chimeric antibody protein (Fc fusion, not shown: human IgG1 Fc fragment, its N-terminus linked to the C-terminus of the VHH) EVQLVESGGGLVQPGGSLRLSCAASRTYSNIYGMHWYRQAPGKGREWVGTIFIGSNTIVTDSVKGRFTISRDNAKNTLYLQMNTLRAEDTAVYYCAADVSGYGRAWGQGTTVTVSS :: 0.7
NB22D-21-24 VHH-Fc chimeric antibody protein (Fc fusion, not shown: human IgG1 Fc fragment, its N-terminus linked to the C-terminus of the VHH) EVQLVESGGGLVQPGGSLRLSCAASRTFSNIFGMHWYRQAPGKGREWVGTIFITGNTIVTDSVKGRFTISRDNAKNTLYLQMNTLRAEDTAVYYCAADVSGYGRAWGQGTTVTVSS :: 0.39

Kindly consider the entry below.
Query: EC50; subject: NB22D-21-4 VHH-Fc chimeric antibody protein (Fc fusion, not shown: human IgG1 Fc fragment, its N-terminus linked to the C-terminus of the VHH) EVQLVESGGGLVQPGGSLRLSCAASRTDRNINTMHWYRQAPGKGREWVGTIFIDLNTIVTDSVKGRFTISRDNAKNTLYLQMNTLRAEDTAVYYCAADVSGYGRAWGQGTTVTVSS
Reply: 0.3
